molecular target: T1, dog serum albumin (dog, UniProt P49822 25-608); assay: SPR (Biacore 8K), albumin immobilized on CM5 chip, 25 C, 1:1 kinetic fit
T1 construct: Bought protein, immobilized on a CM5 chip by amine coupling; also called Dog SA
Quick reference for kon among some binders
The reply should contain only the number, in M⁻¹ s⁻¹.

Known kon results, listed for orientation:
{"columns": ["binder", "measureUnit", "observed"],
 "data": [
  ["RLN Analog 8 (other, Single-chain fusion: VHH - (PGPQ)8 L1 - RLN2 B chain (desB1) - L2 - RLN2 A chain) EVQLLESGGGLVQPGGSLRLSCAASGRYIDETAVAWFRQAPGKGREFVAGIGGGVDITYYADSVKGRFTISRDNSKNTLYLQMNSLRPEDTAVYYCAARPGRPLITSKVADLYPYWGQGTLVTVSSPGPQPGPQPGPQPGPQPGPQPGPQPGPQPGPQSWMEEVIKLCGRELVRAQIAICGMSTWSGGGSGGSGGGQLYSALANKCCHVGCTKRSLARFC", "M⁻¹ s⁻¹", "2.3e+06"],
  ["RLN Analog 13 (other, Single-chain fusion: VHH - (G4Q)5 L1 - RLN2 A chain (desA1-4) - L2 - RLN2 B chain (desB1)) EVQLLESGGGLVQPGGSLRLSCAASGRYIDETAVAWFRQAPGKGREFVAGIGGGVDITYYADSVKGRFTISRDNSKNTLYLQMNSLRPEDTAVYYCAARPGRPLITSKVADLYPYWGQGTLVTVSSGGGGQGGGGQGGGGQGGGGQGGGGQALANKCCHVGCTKRSLARFCGGGSGGSGGGSWMEEVIKLCGRELVRAQIAICGMSTWS", "M⁻¹ s⁻¹", "1.9e+06"]
]}

## Input Using the record for RLN Analog 9 (other, Single-chain fusion: RLN2 B chain (desB1) - L2 - RLN2 A chain - (G4Q)5 L1 - VHH (C-terminal)) SWMEEVIKLCGRELVRAQIAICGMSTWSGGGSGGSGGGQLYSALANKCCHVGCTKRSLARFCGGGGQGGGGQGGGGQGGGGQGGGGQEVQLLESGGGLVQPGGSLRLSCAASGRYIDETAVAWFRQAPGKGREFVAGIGGGVDITYYADSVKGRFTISRDNSKNTLYLQMNSLRPEDTAVYYCAARPGRPLITSKVADLYPYWGQGTLVTVSSPP , state its measured kon.
## Output 950000
